test.system: Serine/threonine-protein kinase PLK1 (Homo sapiens);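 further: reported values are mean PLK1 inhibition, measured as part of the GSK PKIS profiling set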
experimental.setup: at 0.1 µM
# inhibition per entry
The response must be a number in % with no trailing unit.

GET /values?readout=inhibition&item= COc1cc2c(cc1Nc1nc(Nc3ccsc3C(N)=O)c3cc[nH]c3n1)N(C(=O)CN(C)C)CCC2(C)C 56.7

Return reported inhibition; argument: COc1ccc2[nH]c3c4[nH]c5ccc(OC)cc5c4c4c(c3c2c1)C(=O)NC4=O 3.01

Would you mind telling me what inhibition value was observed for COc1ccc(CNC(=O)c2ccc(-c3cc(-c4nnc(C)o4)ccc3C)cc2)cc1 ? 2.95

inhibition lookup needed for CCN(CC)S(=O)(=O)c1ccc(OC)c(Nc2ncc(-c3ccccc3)o2)c1 , thanks. 0.06

// returns reported inhibition for input Nc1nc(-c2ccc(F)cc2)c(-c2ccc3ncccc3n2)s1 3.57

What measured inhibition goes with CN1CCC(n2cnc(-c3ccc(F)cc3)c2-c2ccnc(N)n2)CC1 ? 2.4

Need inhibition of c1ccc(COc2ccc(Nc3ncnc4ccc(-c5ccco5)cc34)cc2)cc1 , thanks. 1.78

Reported inhibition for COC(=O)Nc1nc2ccc(Oc3ccc(NC(=O)Nc4cccc(Cl)c4)cc3)cc2[nH]1 : what is it? -0.55

* * *

test.system: Tyrosine-protein kinase receptor UFO (Homo sapiens) (UniProt P30530)
Sequence (P30530 whole entry): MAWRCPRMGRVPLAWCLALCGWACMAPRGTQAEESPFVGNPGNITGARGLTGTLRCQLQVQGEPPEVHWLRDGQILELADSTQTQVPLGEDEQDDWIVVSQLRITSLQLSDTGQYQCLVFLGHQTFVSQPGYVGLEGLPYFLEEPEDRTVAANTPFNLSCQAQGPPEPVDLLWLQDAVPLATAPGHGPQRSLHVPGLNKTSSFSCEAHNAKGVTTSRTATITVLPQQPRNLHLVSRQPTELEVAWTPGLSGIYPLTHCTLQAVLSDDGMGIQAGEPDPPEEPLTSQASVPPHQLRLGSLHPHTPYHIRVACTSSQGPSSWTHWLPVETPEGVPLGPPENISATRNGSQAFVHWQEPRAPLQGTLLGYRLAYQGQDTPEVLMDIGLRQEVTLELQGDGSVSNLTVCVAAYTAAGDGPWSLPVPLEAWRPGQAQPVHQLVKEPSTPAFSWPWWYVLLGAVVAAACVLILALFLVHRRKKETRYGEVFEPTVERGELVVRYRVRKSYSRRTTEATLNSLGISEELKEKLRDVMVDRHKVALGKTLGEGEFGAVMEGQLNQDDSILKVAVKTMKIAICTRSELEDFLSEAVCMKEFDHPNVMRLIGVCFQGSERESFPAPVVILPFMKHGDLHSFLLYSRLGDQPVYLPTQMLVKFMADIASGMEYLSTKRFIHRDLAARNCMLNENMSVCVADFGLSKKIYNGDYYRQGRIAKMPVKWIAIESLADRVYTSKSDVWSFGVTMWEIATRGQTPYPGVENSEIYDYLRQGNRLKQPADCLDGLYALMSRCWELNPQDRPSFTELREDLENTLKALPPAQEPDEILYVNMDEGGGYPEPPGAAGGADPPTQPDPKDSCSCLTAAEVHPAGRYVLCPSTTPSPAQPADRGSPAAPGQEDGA
experimental.setup: at 1 µM
Description: GSK_PKIS: AXL mean inhibition at 1 uM [Nanosyn]
result.type: inhibition (%)
Just the number please, in %, no unit attached.

# input.smiles, inhibition, %
rows = [
    ("CCCN1CCC(c2ccc(Nc3nc(Nc4cc(F)ccc4C(N)=O)c4cc[nH]c4n3)c(OC)c2)CC1", 66),
    ("COC(=O)Nc1nc2ccc(Oc3ccc(NC(=O)Nc4cccc(Cl)c4)cc3)cc2[nH]1", 6.96),
    ("O=C(Nc1n[nH]c2cc(-c3ccc(F)cc3)ccc12)C1CC1", -2.92),
    ("COc1cc(/C=N/Nc2ncnc3[nH]ncc23)ccc1O", -3.87),
    ("Cc1cccc(Nc2ncc(-c3ccccc3)o2)c1", -3.9),
    ("CCn1c(-c2nonc2N)nc2c(C#CC(C)(C)O)nc(OC[C@H](N)c3ccccc3)cc21", -3),
    ("c1ccc(COc2ccc(Nc3ncnc4ccc(-c5ccco5)cc34)cc2)cc1", 2.06),
    ("COc1ccc(-c2nn3ncccc3c2-c2ccnc(Nc3ccc4c(c3)OCCO4)n2)cc1", 8.45),
]

Fill in the blank: the reported inhibition of Cc1ccc2c(-c3ccnc(Nc4ccccc4)n3)c(-c3ccc(F)cc3)nn2n1 is ____. -3.51

Give its inhibition value. Item: COc1cc(N2CCN(C(C)C)CC2)ccc1Nc1nc(Nc2ccc(F)cc2C(N)=O)c2cc[nH]c2n1 42.4

What inhibition value was documented for this compound, COc1ccc2c(-c3ccnc(Nc4cccc(OC(F)(F)F)c4)n3)cnn2n1 ? -4.65

Reported inhibition, compound NS(=O)(=O)c1ccc(Nc2ncc(-c3ccccc3)o2)cc1 : ____ -3.58

Which value of inhibition has been reported for CS(=O)(=O)CCNCc1coc(-c2ccc3ncnc(Nc4ccc(OCc5ccccc5)cc4)c3c2)c1 in the records? 0.06

I am curious: what inhibition value has been reported for CCn1c(-c2nonc2N)nc2ccccc21 ? 0.96

Form field: reported inhibition of c1ccc(-c2nc3n(c2-c2ccc4c(c2)OCO4)CCC3)nc1 -5.46

Query: inhibition; subject: O=S(=O)(CCNCc1ccc(-c2ccc3ncnc(Nc4ccc(OCc5cccc(F)c5)c(Cl)c4)c3c2)o1)c1ccccc1 -5.93

Which measured inhibition value corresponds to Nc1nc(-c2cccc(Cl)c2)c(-c2ccc3ncccc3n2)s1 ? -8.66

* * *

Each entry below carries its recorded inhibition.
test.system: Serine/threonine-protein kinase D2 (Homo sapiens);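 further: reported percent inhibition values are means, part of the GSK PKIS kinase panel screen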
experimental.setup: at 0.1 µM
Express your answer in %, writing the number without its unit.

# input.smiles, inhibition (%)
rows = [
    ("O=C(O[C@H]1CN[C@H](C#Cc2cc3ncnc(Nc4ccc(Cc5ccccc5)cc4)c3s2)C1)N1CCOCC1", 3.17),
    ("CCn1cc(-c2ccnc3[nH]ccc23)c(-c2cccc(NC(=O)Nc3ccc(OCc4ccccc4)cc3)c2)n1", 18.8),
]

Next up:
Record request: inhibition value, item CCNC(=O)O[C@H]1CN[C@H](C#Cc2cc3ncnc(Nc4ccc(OCc5cccc(F)c5)c(Cl)c4)c3s2)C1 2.15

* * *

test.system: Serine/threonine-protein kinase MRCK beta (Homo sapiens);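 further: averaged inhibition values against MRCK beta, part of the GSK PKIS profiling dataset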
experimental.setup: at 1 µM
Reported inhibition values for the following compounds.
Kindly provide the numeric value in % only, without the unit symbol.

Some compounds with known inhibition results, for comparison:
# input.smiles, inhibition (%)
data = [
    ("CC(=O)NCc1cccc(C#Cc2cncnc2Nc2ccc(OCc3cccc(F)c3)c(Cl)c2)c1", 1.09),
    ("CCn1c(-c2nonc2N)nc2c(C#CC(C)(C)O)nc(OC[C@H](N)c3ccccc3)cc21", 26.6),
    ("COc1ccc(-c2cc(-c3c[nH]nc3-c3ccccn3)ccn2)cc1", 0.6),
    ("CCCN(CCS(C)(=O)=O)Cc1ccc(-c2ccc3ncnc(Nc4ccc(OCc5cccc(F)c5)c(Cl)c4)c3c2)o1", 0.64),
    ("CN1CCC(n2cnc(-c3ccc(F)cc3)c2-c2ccnc(N)n2)CC1", 1.3),
]

Give its inhibition value. Item: Cc1cccc(Nc2ncc(-c3ccccc3)o2)c1 4.56

Query (compound): N#Cc1c(NC(=O)c2ccc(F)cc2)sc2c1CCCC2 ; field requested: inhibition 1.57

Which inhibition is reported for this compound? CCCN1CCC(c2ccc(Nc3nc(Nc4cc(F)ccc4C(N)=O)c4cc[nH]c4n3)c(OC)c2)CC1 23.3

So what's the measured inhibition for this one? COC(=O)Nc1nc2ccc(S(=O)(=O)c3ccc(NC(=O)Nc4cc(C(F)(F)F)ccc4F)cc3)cc2[nH]1 1.32

Given the compound CCn1c(-c2nonc2N)nc2c(C#CC(C)(C)O)ncc(OC3CCNCC3)c21 , what is its reported inhibition? 22.5

Requested read-out: inhibition. Entry: COc1cc2ncn(-c3cc(OCc4ccccc4C(F)(F)F)c(C(=O)N(C)C)s3)c2cc1OC 1.24

What inhibition value was documented for this compound, Fc1cccc(COc2ccc(Nc3ncnc4sc(-c5ccco5)cc34)cc2Cl)c1 ? -0.82

Request the reported inhibition associated with O=C(O[C@H]1CN[C@H](C#Cc2cc3ncnc(Nc4ccc(Cc5ccccc5)cc4)c3s2)C1)N1CCOCC1 4.12

So what's the measured inhibition for this one? COc1cccc(-n2ncc3c(N/N=C/c4ccc(F)cc4)ncnc32)c1 0.66

I am curious: what inhibition value has been reported for Cc1cccc2c1NC(=O)/C2=N\Nc1ccc(S(N)(=O)=O)cc1 ? 2.51

* * *

test.system: Serine/threonine-protein kinase pim-3 (Homo sapiens);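 further: mean inhibition of PIM3 kinase activity, recorded in the GSK_PKIS screening set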
experimental.setup: at 0.1 µM
inhibition: recorded values
Write it as a number; the unit % goes unstated.

Worked cases, inhibition given:
# input.smiles, result.value
records = [
    ("Cc1ccc2c(-c3ccnc(Nc4ccccc4)n3)c(-c3ccc(F)cc3)nn2n1", -1.46),
    ("CC(C)COC(=O)c1ccc2c(c1)/C(=C/Nc1ccc(S(N)(=O)=O)cc1)C(=O)N2", 8.76),
    ("CCNC(=O)O[C@H]1CN[C@H](C#Cc2cc3ncnc(Nc4ccc(OCc5cccc(F)c5)c(Cl)c4)c3s2)C1", -0.41),
    ("CN(C)CCOc1ccc(-c2nc(-c3ccncc3)c(-c3ccc4c(c3)CC/C4=N\\O)[nH]2)cc1", -0.36),
    ("CN1CCC(n2cnc(-c3ccc(F)cc3)c2-c2ccnc(N)n2)CC1", 2.48),
    ("NC(=O)c1sc(-n2cnc3ccc(C(F)(F)F)cc32)cc1OCc1ccccc1Br", 1.1),
    ("COc1cccc(-c2c[nH]c3c(N/N=C/c4ccncc4)ncnc23)c1", 0.71),
    ("COc1ccc(CNC(=O)c2ccc(-c3cc(-c4nnc(C)o4)ccc3C)cc2)cc1", 4.73),
    ("Fc1ccc(-c2nn3ncccc3c2-c2ccnc(Nc3ccc4c(c3)OCCO4)n2)cc1", -2.21),
    ("CCN(CC)S(=O)(=O)c1ccc(OC)c(Nc2ncc(-c3ccccc3)o2)c1", 2.06),
]

Which inhibition is listed for COc1ccc(-c2nn3ncccc3c2-c2ccnc(Nc3ccc4c(c3)OCCO4)n2)cc1 ? 0.26

Using the record for NS(=O)(=O)c1ccc(Nc2ncc(-c3ccccc3)o2)cc1 , report its inhibition. -0.13

Dear colleague, I am looking for the recorded inhibition of the following compound: O=C(O[C@H]1CN[C@H](C#Cc2cc3ncnc(Nc4ccc(Cc5ccccc5)cc4)c3s2)C1)N1CCOCC1 1.54

Reported inhibition for CN1CCC(n2cnc(-c3ccc(F)cc3)c2-c2ccnc(Nc3ccccc3)n2)CC1 : what is it? 1.06

# lookup: inhibition of c1cc(-c2cnn3nc(N4CCOCC4)ccc23)nc(NC2CC2)n1 -0.59

* * *

test.system: Glycogen synthase kinase-3 alpha (Homo sapiens);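 further: values are mean inhibition of GSK3A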
experimental.setup: at 0.1 µM
result.type: inhibition (%)
Write it as a number; the unit % goes unstated.

Consider the following illustrative entries.
# input.smiles, result.value
records = [
    ("NS(=O)(=O)c1ccc(N/N=C2\\C(=O)Nc3ccc4ncccc4c32)cc1", 55.3),
    ("COc1cccc(-n2ncc3c(N/N=C/c4ccc(F)cc4)ncnc32)c1", 64),
    ("COC(=O)Nc1nc2ccc(Oc3ccc(NC(=O)Nc4cccc(Cl)c4)cc3)cc2[nH]1", 3.91),
    ("Fc1ccc(-c2cc(-c3c[nH]nc3-c3ccccn3)ccn2)cc1", 2.14),
    ("CCn1cc(-c2ccnc3[nH]ccc23)c(-c2cccc(NC(=O)Nc3ccc(OCc4ccccc4)cc3)c2)n1", 2.29),
]

Given the entry [O-][S+]1CCN(Cc2ccc(-c3ccc4ncnc(Nc5ccc(OCc6cccc(F)c6)c(Cl)c5)c4c3)o2)CC1 , what inhibition was observed with Glycogen synthase kinase-3 alpha (Homo sapiens)? 3.26

Find the measured inhibition: item CNC(=O)c1cc(-c2ccc(F)cc2)cc(-c2ccc(S(=O)(=O)N3CCCC3)cc2)c1N , target or system Glycogen synthase kinase-3 alpha (Homo sapiens). 3.5

Query for Glycogen synthase kinase-3 alpha (Homo sapiens): what inhibition does the record show for COc1cccc(-c2c[nH]c3c(N/N=C/c4ccncc4)ncnc23)c1 ? 78.9

Entry source: ChEMBL document CHEMBL1961873
